Origin of measurements: ChEMBL document CHEMBL4033637

The compounds listed here are annotated with their pIC50.
Target Or Test System: Glycogen synthase kinase-3 beta (Homo sapiens)
Sequence (P49841 whole entry): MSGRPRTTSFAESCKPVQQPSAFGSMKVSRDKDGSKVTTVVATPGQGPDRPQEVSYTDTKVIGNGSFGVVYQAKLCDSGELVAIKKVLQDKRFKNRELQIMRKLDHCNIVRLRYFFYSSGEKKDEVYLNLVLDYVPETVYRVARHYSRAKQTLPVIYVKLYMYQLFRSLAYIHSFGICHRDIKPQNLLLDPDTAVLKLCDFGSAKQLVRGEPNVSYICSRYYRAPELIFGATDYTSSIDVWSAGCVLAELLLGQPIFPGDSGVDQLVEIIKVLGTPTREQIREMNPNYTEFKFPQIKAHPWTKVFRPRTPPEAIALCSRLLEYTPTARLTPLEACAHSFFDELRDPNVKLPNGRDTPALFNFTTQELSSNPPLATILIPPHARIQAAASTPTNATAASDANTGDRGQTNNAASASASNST
Procedure Text: Inhibition of full-length recombinant human His-tagged GSK3B recombinant in baculovirus expression system using Alexa-Fluor tracer-236 incubated for 60 mins by TR-FRET based Lantha-screen Eu kinase assay
Experimental Conditions: read-out: IC50
For clarity, pIC50 is expressed as the negative log10 of concentration in mol/L.

The examples below pair each entry with its known result.
Nc1nccc(-c2c[nH]c3cnccc23)n1	4.91
COc1ccc2c(-c3ccnc(N)n3)c[nH]c2c1	5.10
Nc1nccc(-c2c[nH]c3cc(Cl)ccc23)n1	4.97

API: the following record is the query input.
pIC50 for "COc1ccc2c(-c3ccnc(N)c3)c[nH]c2c1" ?
4.90
